Molecular target: T1, human MCSP(D3 domain)-avi-his (human, UniProt Q6UVK1 1582-2224)
T1 construct: Recombinant D3 domain of MCSP (CSPG4) with avi and his tags; also called hu-MCSP(D3 domain)-avi-his; human MCSP antigen
T1 sequence: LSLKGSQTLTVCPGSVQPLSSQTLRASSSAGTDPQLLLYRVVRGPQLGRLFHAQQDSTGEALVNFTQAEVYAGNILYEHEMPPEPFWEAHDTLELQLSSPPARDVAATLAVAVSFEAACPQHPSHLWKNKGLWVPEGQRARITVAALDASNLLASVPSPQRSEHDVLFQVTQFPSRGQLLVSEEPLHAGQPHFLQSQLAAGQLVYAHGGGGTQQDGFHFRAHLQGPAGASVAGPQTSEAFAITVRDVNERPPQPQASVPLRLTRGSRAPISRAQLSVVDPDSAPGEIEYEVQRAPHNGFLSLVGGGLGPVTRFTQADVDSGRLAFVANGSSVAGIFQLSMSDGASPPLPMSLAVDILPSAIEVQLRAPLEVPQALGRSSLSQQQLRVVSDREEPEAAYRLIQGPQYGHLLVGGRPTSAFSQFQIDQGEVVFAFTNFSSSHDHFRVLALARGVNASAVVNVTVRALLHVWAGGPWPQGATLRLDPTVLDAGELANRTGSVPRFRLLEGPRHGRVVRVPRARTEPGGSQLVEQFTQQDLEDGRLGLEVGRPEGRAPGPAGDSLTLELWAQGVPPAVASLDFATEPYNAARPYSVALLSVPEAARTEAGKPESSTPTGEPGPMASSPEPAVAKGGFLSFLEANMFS
Test: SPR ProteOn XPR36; parental M4-3/ML2 IgG KD against variant IgG KD

>  <binder>
M4-3/ML2(C5) IgG (antibody, V domains shown, Human IgG1 format, purified from mammalian production) VH: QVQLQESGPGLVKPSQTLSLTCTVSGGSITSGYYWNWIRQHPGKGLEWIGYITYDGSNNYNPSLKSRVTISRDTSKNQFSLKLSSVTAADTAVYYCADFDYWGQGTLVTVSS VL: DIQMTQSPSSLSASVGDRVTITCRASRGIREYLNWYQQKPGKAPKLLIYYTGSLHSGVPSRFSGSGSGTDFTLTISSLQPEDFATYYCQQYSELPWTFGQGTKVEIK

>  <unitsText>
fold

>  <Fold increase over parent (IgG KD)>
5

$$$$
>  <binder>
M4-3(A7)/ML2(C5) IgG (antibody, V domains shown, Human IgG1 format, purified from mammalian production) VH: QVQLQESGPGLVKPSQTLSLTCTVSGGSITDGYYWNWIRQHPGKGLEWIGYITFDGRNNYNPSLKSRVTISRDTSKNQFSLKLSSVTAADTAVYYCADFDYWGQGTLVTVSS VL: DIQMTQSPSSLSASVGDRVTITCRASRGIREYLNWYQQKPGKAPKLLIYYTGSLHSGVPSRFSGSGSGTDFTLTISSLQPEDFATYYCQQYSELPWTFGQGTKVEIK

>  <unitsText>
fold

>  <Fold increase over parent (IgG KD)>
28.6

$$$$
>  <binder>
M4-3(A7)/ML2 IgG (antibody, V domains shown, Human IgG1 format, purified from mammalian production) VH: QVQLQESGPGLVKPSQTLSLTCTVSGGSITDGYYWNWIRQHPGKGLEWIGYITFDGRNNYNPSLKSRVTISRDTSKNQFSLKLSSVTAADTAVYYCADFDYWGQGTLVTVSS VL: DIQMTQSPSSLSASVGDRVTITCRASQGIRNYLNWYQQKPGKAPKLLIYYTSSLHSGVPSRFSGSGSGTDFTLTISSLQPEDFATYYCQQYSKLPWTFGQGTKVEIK

>  <unitsText>
fold

>  <Fold increase over parent (IgG KD)>
2.5

$$$$
>  <binder>
M4-3(D6)/ML2 IgG (antibody, V domains shown, Human IgG1 format, purified from mammalian production) VH: QVQLQESGPGLVKPSQTLSLTCTVSGGSITSGYYWNWIRQHPGKGLEWIGYITFDGKNNYNPSLKSRVTISRDTSKNQFSLKLSSVTAADTAVYYCADFDYWGQGTLVTVSS VL: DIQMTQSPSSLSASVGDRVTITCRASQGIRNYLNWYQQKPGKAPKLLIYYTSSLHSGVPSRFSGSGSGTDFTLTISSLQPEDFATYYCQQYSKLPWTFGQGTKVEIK

>  <unitsText>
fold

>  <Fold increase over parent (IgG KD)>
5

$$$$
>  <binder>
M4-3(A7)/ML2(E10) IgG (antibody, V domains shown, Human IgG1 format, purified from mammalian production) VH: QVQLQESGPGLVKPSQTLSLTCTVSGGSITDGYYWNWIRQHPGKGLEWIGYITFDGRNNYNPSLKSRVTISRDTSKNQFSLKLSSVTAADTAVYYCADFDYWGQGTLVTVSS VL: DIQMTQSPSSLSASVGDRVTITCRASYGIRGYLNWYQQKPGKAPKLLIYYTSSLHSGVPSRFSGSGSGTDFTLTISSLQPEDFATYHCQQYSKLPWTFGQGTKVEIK

>  <unitsText>
fold

>  <Fold increase over parent (IgG KD)>
6.7

$$$$
>  <binder>
M4-3/ML2(E10) IgG (antibody, V domains shown, Human IgG1 format, purified from mammalian production) VH: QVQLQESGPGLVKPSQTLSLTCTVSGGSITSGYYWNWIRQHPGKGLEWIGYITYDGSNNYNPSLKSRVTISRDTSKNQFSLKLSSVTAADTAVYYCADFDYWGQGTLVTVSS VL: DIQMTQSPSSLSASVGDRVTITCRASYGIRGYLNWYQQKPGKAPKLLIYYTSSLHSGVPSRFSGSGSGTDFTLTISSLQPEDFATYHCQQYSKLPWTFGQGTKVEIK

>  <unitsText>
fold

>  <Fold increase over parent (IgG KD)>
2

$$$$
>  <binder>
M4-3(C1)/ML2(E10) IgG (antibody, V domains shown, Human IgG1 format, produced in HEK293-EBNA) VH: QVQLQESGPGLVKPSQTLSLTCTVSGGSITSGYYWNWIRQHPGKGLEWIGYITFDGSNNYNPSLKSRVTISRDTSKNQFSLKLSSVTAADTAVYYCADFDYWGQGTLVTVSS VL: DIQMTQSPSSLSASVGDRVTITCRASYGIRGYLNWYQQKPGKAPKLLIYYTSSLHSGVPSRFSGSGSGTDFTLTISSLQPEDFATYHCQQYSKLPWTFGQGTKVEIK

>  <unitsText>
fold

>  <Fold increase over parent (IgG KD)>
4

$$$$
>  <binder>
M4-3(A7)/ML2(G3) IgG (antibody, V domains shown, Human IgG1 format, purified from mammalian production) VH: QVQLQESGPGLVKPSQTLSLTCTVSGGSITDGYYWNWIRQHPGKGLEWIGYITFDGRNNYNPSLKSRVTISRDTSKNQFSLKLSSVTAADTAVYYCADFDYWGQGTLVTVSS VL: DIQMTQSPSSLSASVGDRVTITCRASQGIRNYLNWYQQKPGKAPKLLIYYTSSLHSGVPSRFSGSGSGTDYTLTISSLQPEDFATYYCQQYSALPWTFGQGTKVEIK

>  <unitsText>
fold

>  <Fold increase over parent (IgG KD)>
28.6

$$$$
>  <binder>
M4-3(C1)/ML2 IgG (antibody, V domains shown, Human IgG1 format, purified from mammalian production) VH: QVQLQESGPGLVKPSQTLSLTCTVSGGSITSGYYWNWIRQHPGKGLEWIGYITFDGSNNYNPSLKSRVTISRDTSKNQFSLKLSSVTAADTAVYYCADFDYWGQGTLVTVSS VL: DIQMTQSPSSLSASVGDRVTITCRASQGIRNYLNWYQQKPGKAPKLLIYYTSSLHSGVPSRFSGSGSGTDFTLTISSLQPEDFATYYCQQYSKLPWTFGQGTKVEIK

>  <unitsText>
fold

>  <Fold increase over parent (IgG KD)>
2.2

$$$$
>  <binder>
M4-3(C1)/ML2(C5) IgG (antibody, V domains shown, Human IgG1 format, produced in HEK293-EBNA) VH: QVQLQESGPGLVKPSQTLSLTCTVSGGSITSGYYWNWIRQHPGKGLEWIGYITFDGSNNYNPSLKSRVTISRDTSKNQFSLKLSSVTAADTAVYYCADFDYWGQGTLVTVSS VL: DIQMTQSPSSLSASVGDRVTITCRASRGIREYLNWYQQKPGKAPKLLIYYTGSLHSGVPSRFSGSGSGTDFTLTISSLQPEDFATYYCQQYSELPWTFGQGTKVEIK

>  <unitsText>
fold

>  <Fold increase over parent (IgG KD)>
10

$$$$
